All figures here come from patent US7232906B2.

- Assay target: recombinant rabbit GSK-3β (Oryctolagus cuniculus)
- Sequence (G1T8E2 1-432): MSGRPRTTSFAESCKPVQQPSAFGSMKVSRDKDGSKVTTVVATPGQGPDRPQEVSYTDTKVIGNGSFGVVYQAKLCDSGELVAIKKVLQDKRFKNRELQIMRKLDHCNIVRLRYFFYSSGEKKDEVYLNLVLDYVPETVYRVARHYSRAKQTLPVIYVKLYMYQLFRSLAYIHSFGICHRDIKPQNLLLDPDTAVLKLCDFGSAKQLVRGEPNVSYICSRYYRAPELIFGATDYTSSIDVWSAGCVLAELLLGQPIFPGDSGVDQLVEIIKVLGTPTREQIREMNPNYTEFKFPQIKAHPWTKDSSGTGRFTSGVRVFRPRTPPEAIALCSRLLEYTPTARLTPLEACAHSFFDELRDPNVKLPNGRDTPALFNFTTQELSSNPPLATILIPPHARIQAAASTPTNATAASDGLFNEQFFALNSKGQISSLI
- Assay details: Glycogen Synthase Kinase-3 assay
- Assay type: biochemical
- Design: scale not given here
- Conditions: @ 200 nM; PPI-2 substrate
Parameter: GSK-3β Assay Activity, % @ 200 nM (% @ 200 nM)
Give bare numbers, in % @ 200 nM.

C=Cn1cc(C2=C(c3cccc(OCC(O)CN(C)C)c3)C(=O)NC2=O)c2ccccc21 (stereo not shown) = 72
CN(CCO)CCn1cc(C2=C(c3csc4ccc(Cl)cc34)C(=O)NC2=O)c2ccccc21 = 81
O=C1NC(=O)C(c2cn(CCN3CCSC3)c3ccccc23)=C1c1csc2ccc(Cl)cc12 = 45

Considering CN(C)CCCn1cc(C2=C(c3cccc4ccccc34)C(=O)NC2=O)c2ccccc21 , its GSK-3β Assay Activity, % @ 200 nM with recombinant rabbit GSK-3β (Oryctolagus cuniculus) was recorded as 64

----------
Kindly state IC50 for each of the entries shown.
- Assay target: PKC β-II (Homo sapiens)
- Sequence (P05771 1-673 isoform P05771-2): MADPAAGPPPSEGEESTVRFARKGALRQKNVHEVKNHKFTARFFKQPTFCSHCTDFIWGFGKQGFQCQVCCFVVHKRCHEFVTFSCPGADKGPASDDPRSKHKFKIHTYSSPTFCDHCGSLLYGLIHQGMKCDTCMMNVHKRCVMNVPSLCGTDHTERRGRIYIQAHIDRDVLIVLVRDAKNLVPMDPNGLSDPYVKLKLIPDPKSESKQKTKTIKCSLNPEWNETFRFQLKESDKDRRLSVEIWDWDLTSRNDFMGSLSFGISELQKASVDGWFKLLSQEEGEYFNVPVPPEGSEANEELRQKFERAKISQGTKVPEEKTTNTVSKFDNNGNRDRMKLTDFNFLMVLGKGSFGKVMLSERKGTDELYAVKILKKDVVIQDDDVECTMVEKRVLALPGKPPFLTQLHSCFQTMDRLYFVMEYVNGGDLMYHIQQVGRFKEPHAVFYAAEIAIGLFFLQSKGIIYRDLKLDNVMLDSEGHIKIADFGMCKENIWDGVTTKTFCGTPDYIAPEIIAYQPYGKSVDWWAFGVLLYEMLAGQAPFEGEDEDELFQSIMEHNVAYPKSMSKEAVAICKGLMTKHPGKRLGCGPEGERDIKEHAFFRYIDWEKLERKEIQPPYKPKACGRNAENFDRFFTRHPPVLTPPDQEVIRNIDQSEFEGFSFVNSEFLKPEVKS
- Assay details: Protein Kinase C histone-based assay, β-II isoform
- Conditions: histone III substrate, 30 μM ATP; approximately ± 30 percent margin of error; read-out: PKC Activity Beta II (IC50, Histone Based Assay)
Give bare numbers, in µM.

CN(C)CC(O)COc1ccccc1C1=C(c2cn(CCO)c3ccccc23)C(=O)NC1=O (stereo not shown) = 0.051

Report IC50 for every entry below.
1. COc1ccccc1C1=C(c2cn(-c3cncc(C(N)=O)c3)c3ccc(Cl)cc23)C(=O)NC1=O
2. COc1ccccc1C1=C(c2cn(-c3cncc(C(=O)O)c3)c3ccc(Cl)cc23)C(=O)NC1=O
3. COc1ccccc1C1=C(c2cn(-c3cccnc3)c3ccccc23)C(=O)NC1=O
4. COc1ccccc1C1=C(c2cn(C3CCOCC3)c3ccccc23)C(=O)NC1=O
5. COc1ccccc1C1=C(c2cn(-c3cncnc3)c3ccccc23)C(=O)NC1=O
6. CN(C)CCCn1cc(C2=C(c3csc4ccc(Cl)cc34)C(=O)NC2=O)c2ccccc21

0.032
0.042
0.527
0.107
0.607
0.081
